assayed.target: T1, GDF-11 (UniProt O95390 299-407)
T1 sequence (looked up): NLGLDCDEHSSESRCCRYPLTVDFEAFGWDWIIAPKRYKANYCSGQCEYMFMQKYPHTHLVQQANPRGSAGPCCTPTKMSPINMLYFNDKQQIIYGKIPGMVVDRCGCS
procedure.text: cell-based or functional assay
Field: IC50, SBE-luciferase reporter in HEK293 cells. Provide a value for each of the binders that follow.
Number only, in µg/mL; omit the unit.

Value of measured IC50, SBE-luciferase reporter in HEK293 cells for the entry ActRIIB-A8 (SEQ ID NO: 126) chimera-Fc protein (Fc fusion, Tested as chimera-Fc protein; not shown: linker (if any) and Fc domain) GRGEAETRECIYYNANWELERTNQSGLERCEGEQDKRLHCYASWRNSSGTIELVKKGCWLDDFNCYDRQECVATEENPQVYFCCCEGNFCNERFTHLPEMEVTQPTS : 0.13

Value of measured IC50, SBE-luciferase reporter in HEK293 cells for the entry ActRIIB-B1B2B3B4 (SEQ ID NO: 119) chimera-Fc protein (Fc fusion, Tested as chimera-Fc protein; not shown: linker (if any) and Fc domain) GRGEAETRECLFFNANWELERTNQTGVEPCEGEQDKRRHCFATWKNISGSIEIVKQGCWLDDFNCYDRQECVATEENPQVYFCCCEGNFCNERFTHLPEAGGPEVTYEPPPTAPT : 0.14

Value of measured IC50, SBE-luciferase reporter in HEK293 cells for the entry ActRIIB-A3 (SEQ ID NO: 122) chimera-Fc protein (Fc fusion, Tested as chimera-Fc protein; not shown: linker (if any) and Fc domain) GRGEAETRECIYYNANWELERTNQSGLERCYGDKDKRLHCYASWRNSSGTIELVKKGCWLDDFNCYDRQECVATEENPQVYFCCCEGNFCNERFTHLPEAGGPEVTYEPPPTAPT : 0.15

Value of measured IC50, SBE-luciferase reporter in HEK293 cells for the entry ActRIIB-A2 (SEQ ID NO: 121) chimera-Fc protein (Fc fusion, Tested as chimera-Fc protein; not shown: linker (if any) and Fc domain) GRGEAETRECIYYNANWEKDRTNQSGLERCEGEQDKRLHCYASWRNSSGTIELVKKGCWLDDFNCYDRQECVATEENPQVYFCCCEGNFCNERFTHLPEAGGPEVTYEPPPTAPT : 0.3

Value of measured IC50, SBE-luciferase reporter in HEK293 cells for the entry ActRIIB-B1B7 (SEQ ID NO: 116) chimera-Fc protein (Fc fusion, Tested as chimera-Fc protein; not shown: linker (if any) and Fc domain) GRGEAETRECLFFNANWELERTNQSGLERCEGEQDKRLHCYASWRNSSGTIELVKKGCWLDDFNCYDRQECVATEENPQVYFCCCEGNFCNEKFSYFPEAGGPEVTYEPPPTAPT : 0.14

Value of measured IC50, SBE-luciferase reporter in HEK293 cells for the entry ActRIIB-B5 (SEQ ID NO: 114) chimera-Fc protein (Fc fusion, Tested as chimera-Fc protein; not shown: linker (if any) and Fc domain) GRGEAETRECIYYNANWELERTNQSGLERCEGEQDKRLHCYASWRNSSGTIELVKKGCWLDDFNCYDRQECVEKEENPQVYFCCCEGNFCNERFTHLPEAGGPEVTYEPPPTAPT : 0.096
